All figures here come from patent US7989602B2.

test system: C57BL-6 mouse spleen cells; assay: Cytokine production in vitro by mouse spleen cells (ELISA); assay type: cell-based; conditions: in words, summary of Table 4
outcome_measure: induced production of IL-12

molecule | outcome_measure | value
CCCCCCCCCCCCCCCCCC(=O)OC[C@H](COP(=O)(O)OCCO[C@H]1O[C@H](CO)[C@@H](O)[C@H](O)[C@@H]1O)OC(=O)CCCCCCCCCCCCCCCCC | induced production of IL-12 | notable levels
CCCCCCCCCCCCCCCCCC(=O)OC[C@H](COP(=O)([O-])OCCCOC1OC(CO)C(O)C(O)C1O)OC(=O)CCCCCCCCCCCCCCCCC.[Na+] (some centres unmarked) | induced production of IL-12 | notable levels

---

Attribute: IFNγ compared with PIM-2 control
system: C57BL-6 mouse spleen cells; experiment: Cytokine production in vitro by mouse spleen cells (ELISA); assay type: cell-based; details: 5 μg/ml in PBS, 24 hours, 10^6 cells per well, ELISA

Solved entries:
molecule | IFNγ compared with PIM-2 control
CCCCCCCCCCCCCCCCCC(=O)OCC(COP(=O)(O)OC(COC1OC(CO)C(O)C(O)C1O)COC1OC(CO)C(O)C(O)C1O)OC(=O)CCCCCCCCCCCCCCCCC (stereo not shown) [Compound 15] | 0.98
CCCCCCCCCCCCCCCCCCOP(=O)([O-])OC(COC1OC(CO)C(O)C(O)C1O)COC1OC(CO)C(O)C(O)C1O.[Na+] (stereo not shown) [Compound 47] | 0.03
CCCCCCCCCCCCCCCCCC(=O)OC[C@H](COP(=O)([O-])OCCCOC1OC(CO)C(O)C(O)C1O)OC(=O)CCCCCCCCCCCCCCCCC.[Na+] (stereo partly shown) [Compound 31] | 0.75

With those in mind, consider the next molecule.
Q: What reported IFNγ compared with PIM-2 control corresponds to CCCCCCCCCCCCCCCCCC(=O)OC[C@H](COP(=O)([O-])O[C@@H]1CCCC[C@H]1OC1OC(CO)C(O)C(O)C1O)OC(=O)CCCCCCCCCCCCCCCCC.[Na+] (stereo partly shown) [Compound 36] on C57BL-6 mouse spleen cells?
Result: 0.05
